The measurements presented in this section are drawn from paper PMC6277198.

- Target of assay: LCAT R244H (Homo sapiens, UniProt P04180, R268H)
- Construct: hydrolysis of 4-methylumbelliferyl palmitate (MUP) by full-length LCAT; made in house; host or cells: HEK293F (transient transfection, secreted)
- Sequence (P04180 25-440 R268H): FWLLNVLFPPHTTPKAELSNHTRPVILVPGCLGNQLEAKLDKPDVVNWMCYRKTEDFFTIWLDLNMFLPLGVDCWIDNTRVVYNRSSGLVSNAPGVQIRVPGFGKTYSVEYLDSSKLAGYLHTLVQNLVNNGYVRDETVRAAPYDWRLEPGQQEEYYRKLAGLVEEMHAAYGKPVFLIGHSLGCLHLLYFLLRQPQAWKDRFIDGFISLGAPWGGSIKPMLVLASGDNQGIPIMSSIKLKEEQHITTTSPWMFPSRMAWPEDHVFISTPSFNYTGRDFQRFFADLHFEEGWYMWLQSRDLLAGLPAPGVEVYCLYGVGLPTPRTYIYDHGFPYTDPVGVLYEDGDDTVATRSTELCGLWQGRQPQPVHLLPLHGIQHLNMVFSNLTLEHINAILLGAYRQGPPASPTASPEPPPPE
- Protocol description: MUP hydrolysis (esterase) assay
- Assay type: biochemical
- Stated conditions: compound titrated from 0.04 to 9.5 μM
Parameter measured: Fold activation, MUP esterase assay (fold)

• N#Cc1cnc(N2CCC(c3n[nH]c4c3C(O)(C(F)(F)F)CC(=O)N4)CC2)cc1C(F)(F)F (stereo not drawn) = 1.6
• O=C1CC(O)(C(F)(F)F)c2c(C3CCN(c4cnc(C(F)(F)F)cn4)CC3)n[nH]c2N1 (stereo not drawn) = 1.8
• O=c1cc(C(F)(F)F)c2c(ncn2C2CCN(c3cnc(C(F)(F)F)cn3)CC2)[nH]1 = 2.8
• O=C1CC(O)(C(F)(F)F)c2c(ncn2C2CCN(c3cnc(C(F)(F)F)cn3)CC2)N1 (stereo not drawn) = 1.8
• O=C1CC(O)(C(F)(F)F)c2c(C3CCN(c4cnc(C(F)(F)F)cn4)CC3)noc2N1 (stereo not drawn) = 1.3

###

- Target of assay: LCAT Y51S/G71I (Homo sapiens, UniProt P04180, G95I/Y75S)
- Construct: hydrolysis of 4-methylumbelliferyl palmitate (MUP) by full-length LCAT; made in house; host or cells: HEK293F (transient transfection, secreted)
- Sequence (P04180 25-440 Y75S/G95I): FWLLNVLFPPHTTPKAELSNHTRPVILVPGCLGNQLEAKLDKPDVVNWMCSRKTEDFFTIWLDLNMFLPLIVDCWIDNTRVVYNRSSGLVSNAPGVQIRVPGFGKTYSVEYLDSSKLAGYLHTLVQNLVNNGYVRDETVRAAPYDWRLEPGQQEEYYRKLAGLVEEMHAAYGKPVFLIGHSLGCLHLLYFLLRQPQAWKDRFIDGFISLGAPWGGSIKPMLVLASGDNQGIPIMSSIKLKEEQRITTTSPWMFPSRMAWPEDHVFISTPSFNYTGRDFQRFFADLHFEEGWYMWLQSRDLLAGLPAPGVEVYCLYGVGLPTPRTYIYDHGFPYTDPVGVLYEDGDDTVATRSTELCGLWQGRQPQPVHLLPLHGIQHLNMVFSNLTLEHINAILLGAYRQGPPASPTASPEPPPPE
- Protocol description: MUP hydrolysis (esterase) assay
- Type: biochemical
- Stated conditions: compound titrated from 0.04 to 9.5 μM
Parameter measured: Fold activation, MUP esterase assay

• O=C1CC(O)(C(F)(F)F)c2c(ncn2C2CCN(c3cnc(C(F)(F)F)cn3)CC2)N1 (stereo not drawn) = 1.1 ± 0.06 fold
• O=C1CC(O)(C(F)(F)F)c2c(C3CCN(c4cnc(C(F)(F)F)cn4)CC3)noc2N1 (stereo not drawn) = 0.97 ± 0.003 fold
• O=C1CC(O)(C(F)(F)F)c2c(C3CCN(c4cnc(C(F)(F)F)cn4)CC3)n[nH]c2N1 (stereo not drawn) = 0.99 ± 0.03 fold
• O=c1cc(C(F)(F)F)c2c(ncn2C2CCN(c3cnc(C(F)(F)F)cn3)CC2)[nH]1 = 1.1 ± 0.07 fold
• N#Cc1cnc(N2CCC(c3n[nH]c4c3C(O)(C(F)(F)F)CC(=O)N4)CC2)cc1C(F)(F)F (stereo not drawn) = 1.3 ± 0.3 fold

###

- Target of assay: LCAT G71I (Homo sapiens, UniProt P04180, G95I)
- Construct: hydrolysis of 4-methylumbelliferyl palmitate (MUP) by full-length LCAT; made in house; host or cells: HEK293F (transient transfection, secreted)
- Sequence (P04180 25-440 G95I): as the sequence (P04180 25-440 R268H) above, with G71I, H244R counted along it
- Protocol description: MUP hydrolysis (esterase) assay
- Type: biochemical
- Stated conditions: compound titrated from 0.04 to 9.5 μM
We begin with a simple list: items and their reported Fold activation, MUP esterase assay.
Parameter measured: Fold activation, MUP esterase assay

* N#Cc1cnc(N2CCC(c3n[nH]c4c3C(O)(C(F)(F)F)CC(=O)N4)CC2)cc1C(F)(F)F (stereo not drawn) [compound 1] | 1.5 ± 0.4 fold
* O=C1CC(O)(C(F)(F)F)c2c(ncn2C2CCN(c3cnc(C(F)(F)F)cn3)CC2)N1 (stereo not drawn) [compound 3] | 1.5 ± 0.2 fold
* O=c1cc(C(F)(F)F)c2c(ncn2C2CCN(c3cnc(C(F)(F)F)cn3)CC2)[nH]1 [compound 8] | 1.2 ± 0.1 fold
* O=C1CC(O)(C(F)(F)F)c2c(C3CCN(c4cnc(C(F)(F)F)cn4)CC3)n[nH]c2N1 (stereo not drawn) [compound 2] | 1.7 ± 0.2 fold
* O=C1CC(O)(C(F)(F)F)c2c(C3CCN(c4cnc(C(F)(F)F)cn4)CC3)noc2N1 (stereo not drawn) [compound 9] | 0.96 ± 0.01 fold
